Origin of measurements: PubChem BioAssay AID2060620

- Tested on: 328373-195-R-J1-PDC complex spheroids, viability % test/control
- Test Name: Anticancer human tumor 328373-195-R-J1-PDC patient-derived head and neck squamous carcinoma cell line growth inhibition [CLK]
- Cond: second compound 1 µM; first compound 0.316 µM; stronger effect = lower value
Measured viability, T/C values are reported for all entries that follow.
API: value field is a number in %; no unit string.

Known results for compounds:
Compound	Units Text	viability, T/C
CC(CO)NC(=O)c1cc(-c2ccc(Cl)cc2)nn(-c2cnn(C)c2)c1=O (centres undefined) + CNC(=O)c1ccc(Nc2nc(OC3CCCC3)c3c(-c4ccc5nc(C)oc5c4)c[nH]c3n2)c(OC)c1	%	9.96
CC(=O)O[C@H]1C(=O)[C@@]2(C)[C@H]([C@H](OC(=O)c3ccccc3)[C@]3(O)C[C@H](OC(=O)[C@H](O)[C@@H](NC(=O)c4ccccc4)c4ccccc4)C(C)=C1C3(C)C)[C@]1(OC(C)=O)CO[C@@H]1C[C@@H]2O + CNC(=O)c1ccc(Nc2nc(OC3CCCC3)c3c(-c4ccc5nc(C)oc5c4)c[nH]c3n2)c(OC)c1	%	27
COc1c(OCCCN2CCOCC2)ccc2c3n(c(=NC(=O)c4cnc(N)nc4)nc12)CCN3 + CNC(=O)c1ccc(Nc2nc(OC3CCCC3)c3c(-c4ccc5nc(C)oc5c4)c[nH]c3n2)c(OC)c1	%	7.75

Prompt: Sample COC1C=CCC(C)C(C)S(=O)(=O)NC(=O)c2ccc3c(c2)N(CC2CCC21)CC1(CCCc2cc(Cl)ccc21)CO3 (centres undefined) + CNC(=O)c1ccc(Nc2nc(OC3CCCC3)c3c(-c4ccc5nc(C)oc5c4)c[nH]c3n2)c(OC)c1 — what was its viability, T/C?
Response: 9.61

====

Measured viability, T/C values are reported for all entries that follow.
- Test system: 328373-195-R-J1-PDC complex spheroids, viability % test/control
- Test Name: Anticancer human tumor 328373-195-R-J1-PDC cell line growth inhibition [CLK];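 further: spheroids exposed to the agents for 7 days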
- Cond: second compound 3.16 µM; first compound 0.316 µM; stronger effect = lower value

Known results for compounds:
Compound	Measurement Kind	Endpoint Result
CC(=O)O[C@H]1C(=O)[C@@]2(C)[C@H]([C@H](OC(=O)c3ccccc3)[C@]3(O)C[C@H](OC(=O)[C@H](O)[C@@H](NC(=O)c4ccccc4)c4ccccc4)C(C)=C1C3(C)C)[C@]1(OC(C)=O)CO[C@@H]1C[C@@H]2O + CN1CCN(c2cc(C(=O)Nc3cc4cc(-c5cnn(C)c5)ccc4cn3)ccn2)CC1	viability, T/C	0.12%
CCN1CCN(Cc2ccc(Nc3ncc(F)c(-c4cc(F)c5nc(C)n(C(C)C)c5c4)n3)nc2)CC1 + CN1CCN(c2cc(C(=O)Nc3cc4cc(-c5cnn(C)c5)ccc4cn3)ccn2)CC1	viability, T/C	1.14%

Turning now to a further record.
Prompt: Lab note: need viability, T/C for COc1c(OCCCN2CCOCC2)ccc2c3n(c(=NC(=O)c4cnc(N)nc4)nc12)CCN3 + CNC(=O)c1ccc(Nc2nc(OC3CCCC3)c3c(-c4ccc5nc(C)oc5c4)c[nH]c3n2)c(OC)c1 on 328373-195-R-J1-PDC complex spheroids, viability % test/control, anyone have it?
Response: 8.29%

====

- System: 328373-195-R-J1-PDC complex spheroids, viability % test/control
- Test Name: Anticancer human tumor 328373-195-R-J1-PDC cell line growth inhibition [CLK];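 further: spheroids exposed to the agents for 7 days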
- Cond: curve of first compound; second compound 0.1 µM
pIC50: −log10 of the molar value.
Measured pIC50 values are reported for all entries that follow.

Known results for compounds:
Compound	pIC50
C=C(F)C(=O)N1CCN(c2nc(OCC3CCCN3C)nc3c2CCN(c2cccc4cccc(Cl)c24)C3)CC1CC#N (stereo unspecified) + CNC(=O)c1ccc(Nc2nc(OC3CCCC3)c3c(-c4ccc5nc(C)oc5c4)c[nH]c3n2)c(OC)c1	> 7.50
CC1(C)CCC(CN2CCN(c3ccc(C(=O)NS(=O)(=O)c4ccc(NCC5CCOCC5)c([N+](=O)[O-])c4)c(Oc4cnc5[nH]ccc5c4)c3)CC2)=C(c2ccc(Cl)cc2)C1 + CNC(=O)c1ccc(Nc2nc(OC3CCCC3)c3c(-c4ccc5nc(C)oc5c4)c[nH]c3n2)c(OC)c1	> 7.50
Nc1ccn(C2OC(CO)C(O)C2(F)F)c(=O)n1 (stereo unspecified) + CNC(=O)c1ccc(Nc2nc(OC3CCCC3)c3c(-c4ccc5nc(C)oc5c4)c[nH]c3n2)c(OC)c1	> 7.50
C=CC(=O)Nc1cc(Nc2nccc(-c3cn(C)c4ccccc34)n2)c(OC)cc1N(C)CCN(C)C + CNC(=O)c1ccc(Nc2nc(OC3CCCC3)c3c(-c4ccc5nc(C)oc5c4)c[nH]c3n2)c(OC)c1	> 9.02
CCCS(=O)(=O)Nc1ccc(F)c(C(=O)c2c[nH]c3ncc(-c4ccc(Cl)cc4)cc23)c1F + CNC(=O)c1ccc(Nc2nc(OC3CCCC3)c3c(-c4ccc5nc(C)oc5c4)c[nH]c3n2)c(OC)c1	> 7.50

Turning now to a further record.
Prompt: Sample C#Cc1c(F)ccc2cc(O)cc(-c3ncc4c(N5CC6CCC(C5)N6)nc(OCC56CCCN5CC(F)C6)nc4c3F)c12 (stereo unspecified) + CNC(=O)c1ccc(Nc2nc(OC3CCCC3)c3c(-c4ccc5nc(C)oc5c4)c[nH]c3n2)c(OC)c1 — what was its pIC50?
Response: > 7.50
